As shown below, each of these binders has a reported pIC50 value.
target: T1, Recombinant human PDGF-BB (human, UniProt P01127 82-190); assay: receptor competition ELISA: DARPin preincubated with PDGF-BB, free PDGF-BB captured on coated PDGFRbeta/Fc; mean IC50
T1 construct: For SPR it was chemically biotinylated on primary amines and captured on neutravidin; also called PDGF-BB (human); Reliatech 200-055
T1 sequence (P01127 82-190 limits assumed): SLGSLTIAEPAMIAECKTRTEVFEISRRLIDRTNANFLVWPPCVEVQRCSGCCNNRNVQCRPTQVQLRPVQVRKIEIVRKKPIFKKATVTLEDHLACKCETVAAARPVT
pIC50: −log10 of the molar value.
recordedEndpoint: pIC50

binder: DARPin #52 (designed binder) MRGSHHHHHHGSDLGKKLLEAARAGQDDEVRILMANGADVNAQDLNGQTPLHLAADIGHLEIVEVLLKHGADVNAQDYAGSTPLRLAAWAGHLEIVEVLLKNGADVNANDYFGYTPLHLAAYFGHLEIVDVLLKHGADVNAQDKFGKTPADIAADNGHEDIAEVLQKLN
recordedEndpoint: pIC50
resultValue: 10.17
--
binder: DARPin #54 (designed binder) MRGSHHHHHHGSDLGKKLLEAARAGQDDEVRILMANGADVNAKDLNGQTPLHLAADIGHLEIVEVLLKAGADVNAKDYAGSTPLRLAAWAGHLEIVEVLLKAGADVNAKDYFGYTPLHLAAYFGHLEIVEVLLKAGADVNAQDKSGKTPADLAADAGHEDIAEVLQKLN
recordedEndpoint: pIC50
resultValue: 9.68
--
binder: DARPin #57 (designed binder) MRGSHHHHHHGSDLGKKLLEAARAGQDDEVRILLKAGADVNAKDLNGQTPLHLAADIGHLEIVEVLLKAGADVNAKDYAGSTPLRLAAWAGHLEIVEVLLKAGADVNAKDYFGYTPLHLAAYFGHLEIVEVLLKAGADVNAQDKSGKTPADLAADAGHEDIAEVLQKLN
recordedEndpoint: pIC50
resultValue: 9.69
--
binder: DARPin #55 (designed binder) MRGSHHHHHHGSDLGKKLLEAARAGQDDEVRILLKAGADVNAKDLNGQTPLHLAADIGHLEIVEVLLKAGADVNAKDYAGSTPLRLAAWAGHLEIVEVLLKAGADVNAKDYFGYTPLHLAAYFGHLEIVEVLLKAGADVNAQDKFGKTAFDISIDNGNEDLAEILQKLN
recordedEndpoint: pIC50
resultValue: 10.85
--
binder: DARPin #58 (designed binder) MRGSHHHHHHGSDLGKKLLEAARAGQDDEVRELLKAGADVNAKDLNGQTPLHLAADIGHLEIVEVLLKAGADVNAKDYAGSTPLRLAAWAGHLEIVEVLLKAGADVNAKDYFGYTPLHLAAYFGHLEIVEVLLKAGADVNAQDKSGKTPADLAADAGHEDIAEVLQKLN
recordedEndpoint: pIC50
resultValue: 9.33
--
binder: DARPin #44 (designed binder) MRGSHHHHHHGSDLGAKLLHAAVVGQDDEVRILLAAGADVNAKDKSGHTPLHLAAYSGHLEIVEVLLKAGADVNAKDQEGTTPLHFAASVGHLEIVEVLLKAGADVNAQDHYGATPADLAALIGHEDIAEVLQKLN
recordedEndpoint: pIC50
resultValue: 9.89
